Values from PubChem BioAssay (EPA / NIEHS)

Please go through the items and note down their AC50.
target: Muscarinic acetylcholine receptor M2 (Homo sapiens) (UniProt P08172); experiment: NVS_GPCR_hM2: NovaScreen (NVS) G Protein-Coupled Receptor Assay for human Muscarinic, M2 Receptor (AID 2283273)
Sequence (P08172 whole entry, looked up): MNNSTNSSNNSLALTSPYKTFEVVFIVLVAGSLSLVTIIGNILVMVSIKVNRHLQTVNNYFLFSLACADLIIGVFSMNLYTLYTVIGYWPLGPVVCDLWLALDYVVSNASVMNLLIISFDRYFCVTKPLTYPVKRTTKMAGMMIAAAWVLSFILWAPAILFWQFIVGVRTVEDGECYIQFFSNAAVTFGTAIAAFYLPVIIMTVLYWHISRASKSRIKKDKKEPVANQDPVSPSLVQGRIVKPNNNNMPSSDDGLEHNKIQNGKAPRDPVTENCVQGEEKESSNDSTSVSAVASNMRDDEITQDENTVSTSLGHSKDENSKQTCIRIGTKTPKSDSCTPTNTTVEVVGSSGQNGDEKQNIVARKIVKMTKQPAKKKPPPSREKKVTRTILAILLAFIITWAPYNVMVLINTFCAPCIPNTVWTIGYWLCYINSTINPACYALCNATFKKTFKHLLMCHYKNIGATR
Records with an inconclusive call do not appear. Active and inactive are the calls of the source. How the source made its calls: active means hit-call score of the fitted dose curve at least 0.9, where 1 is the maximum; inconclusive means response in the unintended direction; inactive means score below 0.9.

O=C=NC1CCC(CC2CCC(N=C=O)CC2)CC1 (centres undefined): 9.37 µM (active)
Nc1cc(N)cc(C(=O)O)c1: 38.1 µM (active)

We now examine a further molecule.
// AC50 lookup, molecule = CNC[C@H](O)c1cccc(O)c1 , result: 29.7 µM (active)

###

read-out: Monokine induced gamma interferon (MIG), CXCL9 (gene 4283); assay: BSK_hDFCGF_MIG: BioMAP Diversity Plus: hDFCGF Assay for Monokine induced gamma interferon (MIG) Biomarker Activity (AID 2283063); conditions: primary human foreskin fibroblasts; actives raise or lower the signal
Active and inactive are the calls of the source. How the source made its calls: active means hit-call score of the fitted dose curve at least 0.9, where 1 is the maximum; inactive means score below 0.9.
Return exactly one item of yes for active, no for inactive

Some solved entries appear below for comparison.
CC1CCC(C(C)CS)CC1S (configuration not stated): yes
NCCNCCN: no
C=C(C)C(=O)O[C@H]1C[C@@H]2CC[C@@]1(C)C2(C)C: yes

Exercise: For this compound, state the assay outcome: O=C1CCCCCCCCCCCCCCO1
Solution: no

Exercise: Answer briefly: the call reported for CCCCCCCCCC=O in this assay.
Solution: no

Exercise: # lookup: test call for CC[Si](OC(C)=O)(OC(C)=O)OC(C)=O
Solution: no

Exercise: State the result this test recorded for CC(=O)OCCC(C)CC(C)(C)C (configuration not stated) .
Solution: no

###

read-out: Vascular cell adhesion molecule 1 (VCAM1), VCAM1 (gene 7412); test: BSK_MyoF_VCAM1: BioMAP Diversity Plus: MyoF Assay for Vascular cell adhesion molecule 1 (VCAM1) Biomarker Activity (AID 2284231); conditions: primary human lung fibroblasts
Calls of active or inactive are those of the source. The calls were made as follows: active = hit-call score of the fitted dose curve at least 0.9, where 1 is the maximum; inactive = score below 0.9.
value-type: AC50

Observe how each entry below is paired with its result.
Nc1cc([N+](=O)[O-])ccc1Cl: inactive
Cc1ccc(Nc2ccc(O)c3c2C(=O)c2ccccc2C3=O)cc1: inactive
CC(=O)Nc1ccccc1O: inactive
O=C1CCCCCCCCCCCCCCO1: 20 µM (active)
Cc1ccc(O)c(C(C)(C)C)c1: 34.4 µM (active)

Working through the 8 compounds below one at a time, give AC50 for each.
1. CC(C)Oc1ccccc1O
2. O=P(c1ccccc1)(c1ccccc1)c1ccccc1
3. COC(=O)c1ccc(C)cc1
4. CCCCCCCCC=O
5. O=C=NC1CCC(CC2CCC(N=C=O)CC2)CC1 (centres undefined)
6. CC(C)c1ccc(C(C)C)cc1
7. CNC[C@H](O)c1cccc(O)c1
8. N#Cc1ccc(CC(=NNC(=O)Nc2ccc(OC(F)(F)F)cc2)c2cccc(C(F)(F)F)c2)cc1

Solution:
["inactive", "inactive", "inactive", "inactive", "inactive", "inactive", "inactive", "inactive"]

###

experiment: CCTE_Shafer_MEA_acute_per_network_burst_spike_number_mean: CCTE's Neural Acute Assay for Average Number of Spikes in a Network Burst, Shafer Lab (AID 2284019)
The source made the active and inactive calls. Rule for the calls: active = hit-call score of the fitted dose curve at least 0.9, where 1 is the maximum; inactive = score below 0.9.
Permitted responses: Y = active, N = inactive

OC1OC[C@@H](O)[C@H](O)[C@H]1O (stereo partly drawn): N
Nc1cc([N+](=O)[O-])ccc1O: Y
C=CCOC(=O)CCC1CCCCC1: N
CCC(=O)OCc1ccccc1: N
NCCNCCN: N

Exercise: Per the records of this test, what outcome belongs to Cc1cc(C2(c3cc(C)c(O)cc3C)OS(=O)(=O)c3ccccc32)c(C)cc1O ?
Solution: Y

Exercise: Please let me know the test result on file for C[C@H]1C[C@@H]2[C@H]([C@@H](O)C[C@@]3(C)[C@H]2CC[C@]3(O)C(=O)CO)[C@@]2(C)C=CC(=O)C=C12 .
Solution: N

Exercise: Can you look up the reported call for CC[Si](OC(C)=O)(OC(C)=O)OC(C)=O for me?
Solution: N
